target-entity: Neu5Ac(a2-8)Neu5Ac(a2-8)Neu5Ac(a2-3)Gal(b1-4)Glc
measurement-protocol: glycan array binding signal (z-score within array); higher = stronger binding
assay-setup: glycan notation: IUPAC condensed, linker removed
This excerpt belongs to a sample that is enriched for the strongest signals.
Would you mind telling me the reported glycan array binding signal (z-score) of each entry?
Give bare numbers.

| binder | glycan array binding signal (z-score) |
| --- | --- |
| LcH (Lens culinaris), P02870 (protein) TETTSFSITKFSPDQQNLIFQGDGYTGKEGLTLTKVSKETGGRALYSTPIHIWDRDTVNVANFVTNGSQVFRESPNGYNVADGFTFFIAPVDTKPQTGGGYLGVFYNGKEYDKTSQTVAVEFDTFYNAAWDPSNKERHIGIDVNSIKSVNTKSWNLQNGVTSYTLNEVVPLKDVVPEWVRIGFSATTGAEFAAQEVHSWSFNSQLGHTSKS | -0.138 |
| DrGal3 (Danio rerio) (protein) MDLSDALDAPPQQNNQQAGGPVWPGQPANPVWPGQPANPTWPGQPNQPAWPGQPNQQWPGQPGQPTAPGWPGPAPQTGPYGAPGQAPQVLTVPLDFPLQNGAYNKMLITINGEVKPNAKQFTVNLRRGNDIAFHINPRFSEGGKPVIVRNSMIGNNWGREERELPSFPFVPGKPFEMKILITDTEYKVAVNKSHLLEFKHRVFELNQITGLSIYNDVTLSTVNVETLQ | -0.195 |
| Banana lectin (Musa acuminata) (protein) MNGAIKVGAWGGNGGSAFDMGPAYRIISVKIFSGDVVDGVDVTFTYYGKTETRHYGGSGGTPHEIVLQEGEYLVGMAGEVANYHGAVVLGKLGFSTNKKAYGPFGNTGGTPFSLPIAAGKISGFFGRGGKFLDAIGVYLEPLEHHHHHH | -0.139 |
| Regenerating Gene I (Homo sapiens), P05451 (protein) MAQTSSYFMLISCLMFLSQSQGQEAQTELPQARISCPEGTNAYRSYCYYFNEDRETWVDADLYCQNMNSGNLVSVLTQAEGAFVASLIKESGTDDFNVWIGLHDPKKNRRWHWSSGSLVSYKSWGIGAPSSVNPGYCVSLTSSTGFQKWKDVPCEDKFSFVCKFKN | -0.596 |
| Sp8391B-bot-388-20-388 (Bacteroides ovatus) (protein) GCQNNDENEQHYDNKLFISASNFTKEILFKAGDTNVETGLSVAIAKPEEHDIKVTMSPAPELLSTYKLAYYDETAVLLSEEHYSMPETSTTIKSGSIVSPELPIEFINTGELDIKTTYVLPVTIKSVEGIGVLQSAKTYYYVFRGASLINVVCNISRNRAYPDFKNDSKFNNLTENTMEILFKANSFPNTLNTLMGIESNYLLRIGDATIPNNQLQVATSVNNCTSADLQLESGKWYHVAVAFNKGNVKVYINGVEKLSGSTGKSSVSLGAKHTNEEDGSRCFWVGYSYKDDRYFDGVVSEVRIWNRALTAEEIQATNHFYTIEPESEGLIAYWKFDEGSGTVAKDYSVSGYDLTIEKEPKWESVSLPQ | 0.117 |

Turning now to a further record.
What value of glycan array binding signal (z-score) has been recorded for this entry: RegIIIgamma (Mus musculus), O09049 (protein) MLPRITITIMSWMLLSCLMLLSQVQGEVAKKDAPSSRSSCPKGSRAYGSYCYALFSVSKNWYDADMACQKRPSGHLVSVLSGAEASFLSSMIKSSGNSGQYVWIGLHDPTLGYEPNRGGWEWSNADVMNYINWETNPSSSSGNHCGTLSRASGFLKWRENYCNLELPYVCKFKA
-0.163
